Where do these numbers come from? They come from ChEMBL document CHEMBL1121514.

target: Adenylate cyclase; experiment: Inhibitory concentration against Dopamine sensitive adenylate cyclase in rats; type: functional
I'd be grateful if you could share measured IC50 for these entries.
Entry rule: numbers only, all in nM.

Query `CN1CCc2c(Cl)c(O)c(O)c(Sc3ccccc3)c2CC1` on Adenylate cyclase; IC50 returned: 360

With Adenylate cyclase as the test system, `Br.Oc1cc2c(c(Sc3ccccc3)c1O)CCNCC2` showed IC50 of 2700

# IC50 measured on Adenylate cyclase for item `Br.CN1CCc2cc(O)c(O)c(Sc3ccccc3)c2CC1` = 240

Reported Adenylate cyclase IC50 for item `CN(C)CCCN1c2ccccc2Sc2ccc(Cl)cc21` was 1300
